Where these numbers come from: ChEMBL document CHEMBL1155986

assay: Inhibition of HCV NS5B deltaC21 polymerase assessed as [3H]GTP incorporation after 3 hrs by scintillation proximity assay; set-up: species or system Hepacivirus hominis; conditions: read-out: IC50
Hi there, I'd appreciate the recorded log10 IC50 for every entry that follows.
Parameter value (number): base-10 log of IC50 in µM.

Exercise: For the molecule O=C(N[C@H](C(=O)O)c1ccc(O)cc1)c1cc2[nH]c(-c3ccco3)c(C3CCCCC3)c(=O)n2n1 , give its measured log10 IC50 value.
Solution: -0.70

Exercise: For the molecule O=C(O)c1cc2[nH]c(-c3ccc(OCc4cccc(C(F)(F)F)c4)cc3)c(C3CCCCC3)c(=O)n2n1 , give its measured log10 IC50 value.
Solution: -0.05

Exercise: For the molecule O=C(O)c1cc2[nH]c(-c3ccc(OCc4ccccc4)cc3)c(CC3CCC3)c(=O)n2n1 , give its measured log10 IC50 value.
Solution: 0.45

Exercise: For the molecule CC(C)CCc1c(-c2ccc(OCc3ccccc3)cc2)[nH]c2cc(C(=O)O)nn2c1=O , give its measured log10 IC50 value.
Solution: 0.18

Exercise: For the molecule O=C(O)c1cc2[nH]c(-c3ccc(OCc4cccc(OC(F)(F)F)c4)cc3)c(C3CCCCC3)c(=O)n2n1 , give its measured log10 IC50 value.
Solution: 0.18

Exercise: For the molecule O=C(O)c1cc2[nH]c(-c3ccc(OCc4ccccc4)cc3)c(C3CCCCC3)c(=O)n2n1 , give its measured log10 IC50 value.
Solution: 0.00

Exercise: For the molecule O=C(O)c1cc2[nH]c(-c3cccc(F)c3)c(C3CCCCC3)c(=O)n2n1 , give its measured log10 IC50 value.
Solution: -0.42

Exercise: For the molecule CC(C)Cc1c(-c2ccc(OCc3ccccc3)cc2)[nH]c2cc(C(=O)O)nn2c1=O , give its measured log10 IC50 value.
Solution: 0.98

Exercise: For the molecule O=C(N[C@@H](Cc1c[nH]c2ccccc12)C(=O)O)c1cc2[nH]c(-c3ccoc3)c(C3CCCCC3)c(=O)n2n1 , give its measured log10 IC50 value.
Solution: -1.22

Exercise: For the molecule COc1cccc(COc2ccc(-c3[nH]c4cc(C(=O)O)nn4c(=O)c3C3CCCCC3)cc2)c1 , give its measured log10 IC50 value.
Solution: 0.00

Exercise: For the molecule O=C(O)c1cc2[nH]c(-c3ccc(Cc4ccccc4)cc3)c(C3CCCCC3)c(=O)n2n1 , give its measured log10 IC50 value.
Solution: 0.41

Exercise: For the molecule COC(=O)[C@H](Cc1c[nH]c2ccccc12)NC(=O)c1cc2[nH]c(-c3ccco3)c(C3CCCCC3)c(=O)n2n1 , give its measured log10 IC50 value.
Solution: -0.57

Exercise: For the molecule O=C(N[C@@H](Cc1c[nH]c2ccccc12)C(=O)O)c1cc2[nH]c(-c3cccs3)c(C3CCCCC3)c(=O)n2n1 , give its measured log10 IC50 value.
Solution: -0.70

* * *

test: Inhibition of HCV NS5B deltaC55 polymerase assessed as [3H]GTP incorporation after 50 min by scintillation proximity assay; set-up: species or system Hepacivirus hominis
Hi there, I'd appreciate the recorded pIC50 for every entry that follows.
pIC50 here: minus log base 10 of the concentration, concentration in moles per litre.

Exercise: For the compound O=C(O)c1cc2[nH]c(-c3ccc(OCc4cccc(C(F)(F)F)c4)cc3)c(C3CCCCC3)c(=O)n2n1 , give its measured pIC50 value.
Solution: 5.74

Exercise: For the compound CC(C)CCc1c(-c2ccc(OCc3ccccc3)cc2)[nH]c2cc(C(=O)O)nn2c1=O , give its measured pIC50 value.
Solution: 5.24

Exercise: For the compound O=C(O)c1cc2[nH]c(-c3ccc(-c4ccccc4)cc3)c(C3CCCCC3)c(=O)n2n1 , give its measured pIC50 value.
Solution: 5.48

Exercise: For the compound O=C(O)c1cc2[nH]c(-c3ccc(Oc4cccc(Cl)c4)cc3)c(C3CCCCC3)c(=O)n2n1 , give its measured pIC50 value.
Solution: 5.48

Exercise: For the compound O=C(O)c1cc2[nH]c(-c3ccc(OCc4ccccc4)cc3)c(CCc3ccccc3)c(=O)n2n1 , give its measured pIC50 value.
Solution: 5.66
